target: sGC α1/β1 heterodimer (Homo sapiens, UniProt Q02108+Q02153); construct: expressed in transfected cells; host or cells: CHO-K1 (clone #7, CHO-K1/sGC); assay: Cell-Based sGC Functional Assay (CASA Assay), cGMP by HTRF in CHO-K1/sGC cells; conditions: cGMP production, 1 hr at 37° C., 4P fit, presence or absence of 1 μM DETA-NO not given, read-out: IP (nM) (inflection point)
Class (required): determined from EC50; valid ranges are low value: < 70 nM; medium value: ≥ 70 nM and < 300 nM; high value: ≥ 300 nM

Incoming: Please report the category associated with CCCc1nc(-c2ncc3c(n2)NC(=O)C3(C)c2ccc(Cl)c(F)c2)cn2ccnc12 (stereo not drawn) [Example 38B] , nothing else.
Outgoing: medium value

Incoming: Please report the category associated with CC1(c2ccc(F)cn2)C(=O)Nc2nc(-c3cn4ccnc4c(Cc4ccc(F)cc4)n3)nc(O)c21 (stereo not drawn) , nothing else.
Outgoing: medium value

Incoming: Please report the category associated with CC1(c2ccc(F)cn2)C(=O)Nc2nc(-c3cn4ccnc4c(CCCC(F)(F)F)n3)nc(C3CC3)c21 (stereo not drawn) [Example 73B] , nothing else.
Outgoing: low value

Incoming: Please report the category associated with O=C1Nc2nc(-c3cn4ccnc4c(CCCC(F)(F)F)n3)ncc2C1(c1ccc(OC(F)(F)F)cc1)C1CC1 (stereo not drawn) [Example 52A] , nothing else.
Outgoing: high value

Incoming: Please report the category associated with CC1(c2ccc(F)cc2)C(=O)Nc2nc(-c3cn4ccnc4c(Cc4ccc(F)cc4)n3)ncc21 (stereo not drawn) [Example 80A] , nothing else.
Outgoing: medium value

Incoming: Please report the category associated with O=C1Nc2nc(-c3cn4ccnc4c(CCCC(F)(F)F)n3)ncc2C1(c1ccc(Cl)cn1)C1CC1 (stereo not drawn) , nothing else.
Outgoing: medium value

Incoming: Please report the category associated with CC1(C(=O)NC2CC2)C(=O)Nc2nc(-c3cn4ccnc4c(Cc4ccccc4F)n3)ncc21 (single isomer, unassigned) [Example 69A] , nothing else.
Outgoing: low value

Incoming: Please report the category associated with CC1(c2ccc(F)cn2)C(=O)Nc2nc(-c3cn4ccnc4c(Cc4ccc(F)cc4)n3)ncc21 (stereo not drawn) , nothing else.
Outgoing: low value

Incoming: Please report the category associated with CC(C)Cc1nc(-c2ncc3c(n2)NC(=O)C3(C)c2ccc(Cl)cn2)cn2ccnc12 (stereo not drawn) [Example 41A] , nothing else.
Outgoing: medium value

Incoming: Please report the category associated with CCCOc1nc(-c2ncc3c(n2)NC(=O)C3(C)c2ccc(F)cc2)cn2ccnc12 (stereo not drawn) [Example 92A] , nothing else.
Outgoing: medium value

Incoming: Please report the category associated with CC(C)C1(C)C(=O)Nc2nc(-c3cn4ccnc4c(Cc4ccccc4)n3)ncc21 (single isomer, unassigned) [Example 95A] , nothing else.
Outgoing: low value

Incoming: Please report the category associated with CC1(c2ccc(F)cn2)C(=O)Nc2nc(-c3cn4ccnc4c(CCC(F)(F)C(F)(F)F)n3)nc(O)c21 (single isomer, unassigned) [Example 18B] , nothing else.
Outgoing: high value

* * *

Please go through the items and note down their Emax.
Target: sGC α1/β1 heterodimer (Homo sapiens, UniProt Q02108+Q02153)
Construct: expressed in transfected cells; host or cells: CHO-K1 (clone #7, CHO-K1/sGC)
Sequence (Q02108 1-690): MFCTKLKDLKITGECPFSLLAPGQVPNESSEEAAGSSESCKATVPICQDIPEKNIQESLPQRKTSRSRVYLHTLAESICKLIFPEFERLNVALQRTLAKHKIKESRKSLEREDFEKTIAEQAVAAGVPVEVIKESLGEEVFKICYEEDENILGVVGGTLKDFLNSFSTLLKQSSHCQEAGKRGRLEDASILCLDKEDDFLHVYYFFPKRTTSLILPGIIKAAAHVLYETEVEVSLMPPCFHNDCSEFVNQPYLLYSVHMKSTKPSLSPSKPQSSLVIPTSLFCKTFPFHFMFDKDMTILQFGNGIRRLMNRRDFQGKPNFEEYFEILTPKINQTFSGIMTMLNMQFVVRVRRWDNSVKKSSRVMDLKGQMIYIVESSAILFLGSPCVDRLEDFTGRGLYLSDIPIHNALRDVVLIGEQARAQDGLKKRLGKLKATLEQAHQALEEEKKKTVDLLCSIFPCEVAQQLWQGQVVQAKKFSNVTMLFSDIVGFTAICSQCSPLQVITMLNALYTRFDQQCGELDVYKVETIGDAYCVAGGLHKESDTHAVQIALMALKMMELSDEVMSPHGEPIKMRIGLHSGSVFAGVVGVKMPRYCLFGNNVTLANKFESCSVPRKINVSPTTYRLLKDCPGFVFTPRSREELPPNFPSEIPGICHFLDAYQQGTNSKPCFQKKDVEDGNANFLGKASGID
Sequence (Q02153 1-619): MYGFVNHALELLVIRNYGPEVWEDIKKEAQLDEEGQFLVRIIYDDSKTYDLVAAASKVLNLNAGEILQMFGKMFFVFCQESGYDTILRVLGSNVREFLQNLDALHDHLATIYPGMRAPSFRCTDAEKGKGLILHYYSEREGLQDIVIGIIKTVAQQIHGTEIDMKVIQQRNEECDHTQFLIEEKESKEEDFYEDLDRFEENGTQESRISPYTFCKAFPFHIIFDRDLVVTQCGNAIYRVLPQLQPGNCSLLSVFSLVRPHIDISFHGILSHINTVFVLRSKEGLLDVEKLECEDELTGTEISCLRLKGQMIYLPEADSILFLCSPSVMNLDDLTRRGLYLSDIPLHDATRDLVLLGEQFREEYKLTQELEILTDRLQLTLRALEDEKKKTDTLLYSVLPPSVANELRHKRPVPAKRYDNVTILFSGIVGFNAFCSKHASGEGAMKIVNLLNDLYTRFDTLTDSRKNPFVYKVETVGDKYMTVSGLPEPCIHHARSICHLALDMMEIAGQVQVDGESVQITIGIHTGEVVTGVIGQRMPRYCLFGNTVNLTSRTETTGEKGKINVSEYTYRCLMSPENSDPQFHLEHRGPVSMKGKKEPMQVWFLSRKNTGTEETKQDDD
Test: Cell-Based sGC Functional Assay (CASA Assay), cGMP by HTRF in CHO-K1/sGC cells
Settings: CHO-K1, percent activation relative to maximum cGMP production of Compound A (= 100%), read-out: % Act.
Please give a number only; it is taken to be in %.

Incoming: // Emax lookup, key: CCCc1nc(-c2nc(O)c3c(n2)NC(=O)C3(C)c2ccc(Cl)cc2)cn2ccnc12 (stereo not shown) [Example 14A]
Outgoing: 92

Incoming: // Emax lookup, key: CC1(c2ccc(Cl)cn2)C(=O)Nc2nc(-c3cn4c(N)cnc4c(CCC(F)(F)C(F)(F)F)n3)ncc21 (stereo not shown) [Example 87A]
Outgoing: 130

Incoming: // Emax lookup, key: CC1(c2ccc(Cl)c(F)c2)C(=O)Nc2nc(-c3cn4ccnc4c(CCC(F)(F)F)n3)nc(O)c21 (stereo not shown) [Example 13B]
Outgoing: 70

Incoming: // Emax lookup, key: O=C1Nc2nc(-c3cn4ccnc4c(CCC(F)(F)C(F)(F)F)n3)ncc2C1(c1ccc(F)cn1)C1CC1 (stereo not shown) [Example 53A]
Outgoing: 125

Incoming: // Emax lookup, key: CC1(c2ccc(F)cn2)C(=O)Nc2nc(-c3cn4ccnc4c(CCCC(F)(F)F)n3)nc(C3CC3)c21 (stereo not shown) [Example 73B]
Outgoing: 125

Incoming: // Emax lookup, key: CC1(c2ccc(F)cc2)C(=O)Nc2nc(-c3cn4ccnc4c(CCC(F)(F)C(F)(F)F)n3)nc(O)c21 (stereo not shown)
Outgoing: 102

Incoming: // Emax lookup, key: CCCCc1nc(-c2nc(O)c3c(n2)NC(=O)C3(c2ccc(Cl)cn2)C2CC2)cn2ccnc12 (stereo not shown) [Example 25A]
Outgoing: 153

* * *

Please go through the items and note down their Emax.
Molecular target: sGC α1/β1 heterodimer (Homo sapiens, UniProt Q02108+Q02153)
Construct: expressed in transfected cells; host or cells: CHO-K1 (clone #7, CHO-K1/sGC)
Sequence (Q02108 1-690): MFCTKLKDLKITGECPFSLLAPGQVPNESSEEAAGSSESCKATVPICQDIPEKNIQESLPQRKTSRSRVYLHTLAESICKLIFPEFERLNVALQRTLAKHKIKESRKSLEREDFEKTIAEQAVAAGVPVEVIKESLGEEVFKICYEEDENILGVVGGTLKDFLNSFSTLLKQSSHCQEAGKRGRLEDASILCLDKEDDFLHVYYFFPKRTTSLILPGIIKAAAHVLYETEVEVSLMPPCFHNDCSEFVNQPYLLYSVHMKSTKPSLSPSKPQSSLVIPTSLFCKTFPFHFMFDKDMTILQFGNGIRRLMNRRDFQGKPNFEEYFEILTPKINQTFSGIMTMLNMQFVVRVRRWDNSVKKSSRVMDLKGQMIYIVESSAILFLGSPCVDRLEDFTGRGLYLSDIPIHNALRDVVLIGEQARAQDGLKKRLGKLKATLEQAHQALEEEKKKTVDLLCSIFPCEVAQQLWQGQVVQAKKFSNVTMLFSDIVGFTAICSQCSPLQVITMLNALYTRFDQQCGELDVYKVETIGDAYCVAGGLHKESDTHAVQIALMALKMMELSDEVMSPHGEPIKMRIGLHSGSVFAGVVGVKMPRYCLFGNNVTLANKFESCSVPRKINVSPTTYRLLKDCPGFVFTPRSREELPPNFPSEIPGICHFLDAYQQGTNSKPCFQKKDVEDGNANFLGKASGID
Sequence (Q02153 1-619): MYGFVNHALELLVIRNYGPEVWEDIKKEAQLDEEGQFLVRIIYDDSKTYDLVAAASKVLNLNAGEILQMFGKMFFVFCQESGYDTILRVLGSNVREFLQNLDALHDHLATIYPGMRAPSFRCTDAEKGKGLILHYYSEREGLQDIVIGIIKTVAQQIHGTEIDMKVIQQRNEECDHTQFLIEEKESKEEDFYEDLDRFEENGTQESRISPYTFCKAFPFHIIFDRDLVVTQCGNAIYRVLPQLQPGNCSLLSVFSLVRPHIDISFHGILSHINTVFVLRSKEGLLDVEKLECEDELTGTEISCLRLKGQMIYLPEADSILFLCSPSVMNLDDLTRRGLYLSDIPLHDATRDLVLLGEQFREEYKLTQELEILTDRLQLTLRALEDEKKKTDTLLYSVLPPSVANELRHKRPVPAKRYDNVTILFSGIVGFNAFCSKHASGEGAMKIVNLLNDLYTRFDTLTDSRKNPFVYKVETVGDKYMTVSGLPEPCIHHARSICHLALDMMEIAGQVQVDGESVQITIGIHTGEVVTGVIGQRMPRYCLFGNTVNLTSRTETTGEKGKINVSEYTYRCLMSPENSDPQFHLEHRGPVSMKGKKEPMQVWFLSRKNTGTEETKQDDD
Test: Cell-Based sGC Functional Assay (CASA Assay), cGMP by HTRF in CHO-K1/sGC cells
Conditions: CHO-K1, percent activation relative to maximum cGMP production of Compound A (= 100%), read-out: % Act.
Please give a number only; it is taken to be in %.

Incoming: // Emax lookup, key: O=C1Nc2nc(-c3cn4ccnc4c(CCCC(F)(F)F)n3)nc(O)c2C1(c1ccc(F)c(F)c1)C1CC1 (stereo not drawn) [Example 20A]
Outgoing: 139

Incoming: // Emax lookup, key: O=C1Nc2nc(-c3cn4ccnc4c(CCCC(F)(F)F)n3)ncc2C1(c1ccc(Cl)cn1)C1CC1 (stereo not drawn) [Example 9A]
Outgoing: 120

Incoming: // Emax lookup, key: O=C1Nc2nc(-c3cn4ccnc4c(CCCC(F)(F)F)n3)ncc2C1(c1ccc(Cl)cc1F)C1CC1 (stereo not drawn) [Example 46A]
Outgoing: 135

Incoming: // Emax lookup, key: Cc1nc(-c2cn3ccnc3c(CCC(F)(F)C(F)(F)F)n2)nc2c1C(C)(c1ccc(F)cc1)C(=O)N2 (stereo not drawn) [Example 77A]
Outgoing: 117

Incoming: // Emax lookup, key: CC1(c2ccc(Cl)cn2)C(=O)Nc2nc(-c3cn4ccnc4c(Cc4ccc(F)cc4)n3)ncc21 (stereo not drawn) [Example 42A]
Outgoing: 124

Incoming: // Emax lookup, key: CCCc1nc(-c2ncc3c(n2)NC(=O)C3(C)c2ccc(Cl)cc2)cn2ccnc12 (stereo not drawn) [Example 39A]
Outgoing: 101

Incoming: // Emax lookup, key: CC1(c2ccc(Cl)cc2)C(=O)Nc2nc(-c3cn4ccnc4c(CCC(F)(F)F)n3)nc(C3CC3)c21 (stereo not drawn) [Example 74A]
Outgoing: 165

Incoming: // Emax lookup, key: CCCCc1nc(-c2ncc3c(n2)NC(=O)C3(c2ccc(F)c(F)c2)C2CC2)cn2ccnc12 (stereo not drawn) [Example 43A]
Outgoing: 112

Incoming: // Emax lookup, key: CCCCc1nc(-c2nc(O)c3c(n2)NC(=O)C3(c2ccc(F)c(F)c2)C2CC2)cn2ccnc12 (stereo not drawn) [Example 19A]
Outgoing: 128

Incoming: // Emax lookup, key: COCCOc1nc(-c2cn3ccnc3c(CCC(F)(F)C(F)(F)F)n2)nc2c1C(C)(c1ccc(F)cc1)C(=O)N2 (stereo not drawn) [Example 88A]
Outgoing: 100

Incoming: // Emax lookup, key: CC1(c2ccc(F)cc2)C(=O)Nc2nc(-c3cn4ccnc4c(Cc4ccc(F)cc4)n3)ncc21 (stereo not drawn) [Example 80A]
Outgoing: 111

Incoming: // Emax lookup, key: CCCCc1nc(-c2ncc3c(n2)NC(=O)C3(c2ccc(Cl)c(F)c2)C2CC2)cn2ccnc12 (stereo not drawn) [Example 47A]
Outgoing: 123

Incoming: // Emax lookup, key: O=C1Nc2nc(-c3cn4ccnc4c(CCCC(F)(F)F)n3)ncc2C1(c1ccc(F)c(F)c1)C1CC1 (stereo not drawn) [Example 44A]
Outgoing: 150

Incoming: // Emax lookup, key: CCCCc1nc(-c2ncc3c(n2)NC(=O)C3(c2ccc(OC(F)(F)F)cc2)C2CC2)cn2ccnc12 (stereo not drawn) [Example 51A]
Outgoing: 98

Incoming: // Emax lookup, key: CC1(c2ccc(F)cn2)C(=O)Nc2nc(-c3cn4ccnc4c(Cc4ccc(F)cc4)n3)ncc21 (stereo not drawn) [Example 5B]
Outgoing: 117

Where do these numbers come from? They come from patent US10213429B2.
